Below, each of the compounds is paired with its reported IC50 value.
ASSAY_PROTOCOL: cells
CONDITION_PARAMETERS: Homo sapiens, KBVIN, 72 h
Description: Cytotoxicity against multidrug-resistant human KBVIN cells after 72 hrs sulforhodamine B colorimetric assay
Lab book: enter the figure in µM, no units written.

**Q:** What value of IC50 has been reported for the following compound? `CC[C@@]1(O)C(=O)OCc2c1cc1n(c2=O)Cc2c-1nc1ccccc1c2CNc1cccc2ccccc12`
**A:** 0.078

**Q:** What value of IC50 has been reported for the following compound? `CC[C@@]1(O)C(=O)OCc2c1cc1n(c2=O)Cc2c-1nc1ccccc1c2CNc1ccc(Br)cc1`
**A:** 0.0633

**Q:** What value of IC50 has been reported for the following compound? `CC[C@@]1(O)C(=O)OCc2c1cc1n(c2=O)Cc2c-1nc1ccccc1c2CNc1ccc(C)cc1`
**A:** 0.0795

Hello, the source for this data is ChEMBL document CHEMBL3352035, in case you need it.
